Data origin: patent US11266650B2

method_summary: Pharmacokinetic test in SD male rats (Experimental Examples 11, 12, 15)
Format: in vivo
setup_conditions: rat, plasma, po, 10 mg/kg, oral 10 mg/kg in 0.5% MC (Exp. 15-1)
parameter: half-life (h)
Numbers only, in h.

// half-life lookup, key: O[C@@H]1[C@H](O)CS[C@H]1n1cnc2c(NCc3cccc(Cl)c3)nc(Cl)nc21 [Example 2] 4.56

###

tgt: UniProt P0DMS8
Sequence (P0DMS8 whole entry): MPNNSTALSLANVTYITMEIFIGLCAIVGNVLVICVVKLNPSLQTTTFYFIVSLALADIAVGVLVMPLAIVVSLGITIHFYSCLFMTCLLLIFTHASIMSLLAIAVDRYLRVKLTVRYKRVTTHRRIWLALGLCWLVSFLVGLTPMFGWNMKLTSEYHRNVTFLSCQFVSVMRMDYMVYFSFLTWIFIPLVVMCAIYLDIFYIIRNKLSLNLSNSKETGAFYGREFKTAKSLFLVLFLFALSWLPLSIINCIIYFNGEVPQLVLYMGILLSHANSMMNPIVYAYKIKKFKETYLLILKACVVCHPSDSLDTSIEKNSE
parameter: Ki (nM)
One number for each entry, in nM.

// Ki lookup, key: CNc1nc(Cl)nc2c1ncn2[C@@H]1SC[C@H](O)[C@@H]1O 3.69

###

method_summary: Pharmacokinetic test in dogs (Experimental Example 14)
Assay type: in vivo
setup_conditions: dog, plasma, po, 10 mg/kg, G3, PO, 10 mg/kg, powder state in a capsule, read-out: Ft (bioavailability)
Protocol: Intravenous administration was performed through a tube inserted into the femoral vein, and oral administration was performed using oral gavage. After the administration, the experimental animals' blood was taken at predetermined time intervals for 24 hours. Then, the blood was centrifuged to separate plasma. The plasma samples were pretreated with a suitable organic solvent, and then the concentration of the plasma samples was analyzed by LC-MS/MS. […]
parameter: bioavailability

// bioavailability lookup, key: O[C@@H]1[C@H](O)CS[C@H]1n1cnc2c(NCc3cccc(Cl)c3)nc(Cl)nc21 > 99.9%

###

method_summary: Pharmacokinetic test in SD male rats (Experimental Examples 11, 12, 15)
Type: in vivo
setup_conditions: rat, plasma, iv, 2 mg/kg
parameter: AUC(0-inf) (ng·h/mL)
Give bare numbers, in ng·h/mL.

// AUC(0-inf) lookup, key: O[C@@H]1[C@H](O)CS[C@H]1n1cnc2c(NCc3cccc(Cl)c3)nc(Cl)nc21 [Example 2] 5490

###

method_summary: Pharmacokinetic test in dogs (Experimental Example 14)
Assay type: in vivo
setup_conditions: dog, plasma, iv, 2 mg/kg, G1, IV
parameter: half-life (h)
Answers are plain numbers, in h.

// half-life lookup, key: O[C@@H]1[C@H](O)CS[C@H]1n1cnc2c(NCc3cccc(Cl)c3)nc(Cl)nc21 2.17

###

method_summary: Pharmacokinetic test in SD male rats (Experimental Examples 11, 12, 15)
Type: in vivo
setup_conditions: plasma, rat, PO, 10 mg/kg (Exp. 12-2), read-out: Ft (bioavailability)
Experimental: Intravenous administration was performed through a tube inserted into the femoral vein, and oral administration was performed using oral gavage. After the administration, the experimental animals' blood was taken at predetermined time intervals for 24 hours. Then, the blood was centrifuged to separate plasma. The plasma samples were pretreated with a suitable organic solvent, and then the concentration of the plasma samples was analyzed by LC-MS/MS. […]
parameter: bioavailability

// bioavailability lookup, key: O[C@@H]1[C@H](O)CS[C@H]1n1cnc2c(NCc3cccc(Cl)c3)nc(Cl)nc21 > 99.9%

###

method_summary: Pharmacokinetic test in SD male rats (Experimental Examples 11, 12, 15)
Format: in vivo
setup_conditions: rat, plasma, po, 10 mg/kg, oral 10 mg/kg in Vehicle: 5% DMSO, 40% PEG400 and 55% DW (Exp. 15-2)
parameter: Cmax (ng/mL)
One number for each entry, in ng/mL.

// Cmax lookup, key: O[C@@H]1[C@H](O)CS[C@H]1n1cnc2c(NCc3cccc(Cl)c3)nc(Cl)nc21 2710

###

method_summary: Pharmacokinetic test in SD male rats (Experimental Examples 11, 12, 15)
Format: in vivo
setup_conditions: rat, plasma, po, 10 mg/kg, 10 mg/kg (Exp. 12-2)
parameter: half-life (h)
One number for each entry, in h.

// half-life lookup, key: O[C@@H]1[C@H](O)CS[C@H]1n1cnc2c(NCc3cccc(Cl)c3)nc(Cl)nc21 [Example 2] 3.34

###

method_summary: Pharmacokinetic test in dogs (Experimental Example 14)
Type: in vivo
setup_conditions: dog, plasma, iv, 2 mg/kg, G1, IV
parameter: AUC(0-t) (ng·h/mL)
One number for each entry, in ng·h/mL.

// AUC(0-t) lookup, key: O[C@@H]1[C@H](O)CS[C@H]1n1cnc2c(NCc3cccc(Cl)c3)nc(Cl)nc21 [Example 2] 948

###

method_summary: Pharmacokinetic test in SD male rats (Experimental Examples 11, 12, 15)
Format: in vivo
setup_conditions: rat, plasma, po, 10 mg/kg, 10 mg/kg (Exp. 12-2)
parameter: Tmax (h)
Give bare numbers, in h.

// Tmax lookup, key: O[C@@H]1[C@H](O)CS[C@H]1n1cnc2c(NCc3cccc(Cl)c3)nc(Cl)nc21 2.42

###

I'd appreciate it if you could supply inhibition values for the items below.
tgt: human A2A adenosine receptor (hA2A) (Homo sapiens)
Construct: expressed in transfected cells; host or cells: HEK 293 cells
Sequence (P29274 whole entry): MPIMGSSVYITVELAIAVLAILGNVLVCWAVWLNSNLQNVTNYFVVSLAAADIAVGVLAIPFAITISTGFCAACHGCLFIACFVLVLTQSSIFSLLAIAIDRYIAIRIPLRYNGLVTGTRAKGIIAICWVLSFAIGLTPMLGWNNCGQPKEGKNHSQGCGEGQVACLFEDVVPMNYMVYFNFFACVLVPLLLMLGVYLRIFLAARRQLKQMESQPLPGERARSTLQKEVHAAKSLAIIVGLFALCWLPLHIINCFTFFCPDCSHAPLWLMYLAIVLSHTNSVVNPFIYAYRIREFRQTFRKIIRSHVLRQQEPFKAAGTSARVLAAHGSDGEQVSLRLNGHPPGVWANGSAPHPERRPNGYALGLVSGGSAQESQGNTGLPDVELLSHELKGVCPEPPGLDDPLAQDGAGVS
method_summary: Binding affinity for A2A adenosine receptor expressed on HEK 293 cell ([3H]CGS-21680)
setup_conditions: 10 μM (table footnote); read-out: percentage inhibition of specific binding, hA2A
Numbers only, in %.

Solved cases below.
{"compound": "CNc1nc(Cl)nc2c1ncn2[C@@H]1SC[C@H](O)[C@@H]1O", "inhibition [%]": 45}
{"compound": "OC1CO[C@@H](n2cnc3c(NCc4cccc(I)c4)nc(Cl)nc32)C1O (some centres unmarked)", "inhibition [%]": 28.6}
{"compound": "O[C@@H]1[C@H](O)CS[C@H]1n1cnc2c(NCc3cccc4ccccc34)nc(Cl)nc21", "inhibition [%]": -8.3}
{"compound": "O[C@@H]1[C@H](O)CS[C@H]1n1cnc2c(NCc3cccc(Br)c3)nc(Cl)nc21", "inhibition [%]": 18.4}

For each entry beneath this line, provide reported inhibition.
1. COc1ccccc1CNc1nc(Cl)nc2c1ncn2[C@@H]1SC[C@@H](O)[C@H]1O
2. O[C@@H]1[C@H](O)CS[C@H]1n1cnc2c(NCc3cccc(F)c3)nc(Cl)nc21
3. O[C@@H]1[C@H](O)CO[C@H]1n1cnc2c(NCc3cccc(Br)c3)nc(Cl)nc21
4. O=C(O)c1cccc(CNc2nc(Cl)nc3c2ncn3[C@@H]2SC[C@@H](O)[C@H]2O)c1

[17.5, 47.6, 22.8, -0.18]

###

Tested on: each cell line
method_summary: Cytotoxicity, Cyto X cell viability assay kit
Type: cell-based
setup_conditions: each cell line
parameter: IC50

// IC50 lookup, key: O[C@@H]1[C@H](O)CS[C@H]1n1cnc2c(NCc3cccc(Cl)c3)nc(Cl)nc21 [Example 2] ≥ 10 µM

###

method_summary: Pharmacokinetic test in SD male rats (Experimental Examples 11, 12, 15)
Format: in vivo
setup_conditions: rat, plasma, po, 5 mg/kg, P.O.
parameter: AUC(0-inf) (ng·h/mL)
Answers are plain numbers, in ng·h/mL.

// AUC(0-inf) lookup, key: O[C@@H]1[C@H](O)CS[C@H]1n1cnc2c(NCc3cccc(Cl)c3)nc(Cl)nc21 7040

###

method_summary: Pharmacokinetic test in dogs (Experimental Example 14)
Assay type: in vivo
setup_conditions: dog, plasma, po, 10 mg/kg, G2, PO, 10 mg/kg, dissolved in a solvent, read-out: Ft (bioavailability)
parameter: bioavailability (%)
Numbers only, in %.

// bioavailability lookup, key: O[C@@H]1[C@H](O)CS[C@H]1n1cnc2c(NCc3cccc(Cl)c3)nc(Cl)nc21 82

###

method_summary: Pharmacokinetic test in SD male rats (Experimental Examples 11, 12, 15)
Format: in vivo
setup_conditions: rat, plasma, po, 5 mg/kg, P.O., 5 mg/kg (Exp. 11-2)
parameter: Cmax (ng/mL)
Give bare numbers, in ng/mL.

// Cmax lookup, key: O[C@@H]1[C@H](O)CS[C@H]1n1cnc2c(NCc3cccc(Cl)c3)nc(Cl)nc21 1450

###

method_summary: Plasma stability, human plasma
Format: in vitro ADME
parameter: Plasma stability (%)
Give bare numbers, in %.

// Plasma stability lookup, key: O[C@@H]1[C@H](O)CS[C@H]1n1cnc2c(NCc3cccc(Cl)c3)nc(Cl)nc21 98.9

###

method_summary: Pharmacokinetic test in SD male rats (Experimental Examples 11, 12, 15)
Type: in vivo
setup_conditions: plasma, rat, IV, 2 mg/kg, read-out: Vss
parameter: Vd (L/kg)
Numbers only, in L/kg.

// Vd lookup, key: O[C@@H]1[C@H](O)CS[C@H]1n1cnc2c(NCc3cccc(Cl)c3)nc(Cl)nc21 [Example 2] 2.27

###

method_summary: Pharmacokinetic test in dogs (Experimental Example 14)
Assay type: in vivo
setup_conditions: dog, plasma, po, 10 mg/kg, G3, PO, powder state in a capsule
parameter: AUC(0-t) (ng·h/mL)
Give bare numbers, in ng·h/mL.

// AUC(0-t) lookup, key: O[C@@H]1[C@H](O)CS[C@H]1n1cnc2c(NCc3cccc(Cl)c3)nc(Cl)nc21 [Example 2] 5640

###

method_summary: pKa
Type: physicochemical
parameter: pKa
One number for each entry.

// pKa lookup, key: O[C@@H]1[C@H](O)CS[C@H]1n1cnc2c(NCc3cccc(Cl)c3)nc(Cl)nc21 11.3
